Here, each record is paired with measured Ki data.
- systemName: Delta-type opioid receptor (Rattus norvegicus, UniProt P33533)
- Sequence (P33533 whole entry): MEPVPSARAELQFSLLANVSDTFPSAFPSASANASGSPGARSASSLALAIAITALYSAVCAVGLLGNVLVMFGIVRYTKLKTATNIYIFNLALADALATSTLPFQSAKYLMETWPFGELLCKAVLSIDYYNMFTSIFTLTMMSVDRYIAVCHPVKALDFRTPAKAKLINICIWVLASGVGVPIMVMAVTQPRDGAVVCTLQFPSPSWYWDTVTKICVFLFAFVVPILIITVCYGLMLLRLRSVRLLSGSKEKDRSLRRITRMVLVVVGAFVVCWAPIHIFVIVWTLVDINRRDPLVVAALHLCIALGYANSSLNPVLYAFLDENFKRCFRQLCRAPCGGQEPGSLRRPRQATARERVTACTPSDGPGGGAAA
- testDescription: Inhibition of [3H]DTLET binding torat brain membrane Opioid receptor delta 1
Reply with just the number (in nM).

See these solved cases before continuing.
{"chemicalString": "CC(C)C[C@H](NC(=O)[C@H](Cc1ccccc1)NC(=O)CNC(=O)[C@@H](COCc1ccccc1)NC(=O)[C@@H](N)Cc1ccc(O)cc1)C(=O)N[C@H](C(=O)O)[C@@H](C)O", "systemName": "Delta-type opioid receptor (Rattus norvegicus, UniProt P33533)", "Ki (nM)": 1.47}
{"chemicalString": "CC(C)C[C@H](NC(=O)[C@H](Cc1ccccc1)NC(=O)CNC(=O)[C@@H](COC(C)(C)C)NC(=O)[C@@H](N)Cc1ccc(O)cc1)C(=O)N[C@H](C(=O)O)[C@@H](C)O", "systemName": "Delta-type opioid receptor (Rattus norvegicus, UniProt P33533)", "Ki (nM)": 6.14}
{"chemicalString": "CC(C)C[C@H](NC(=O)[C@H](Cc1ccccc1)NC(=O)CNC(=O)[C@@H](NC(=O)[C@@H](N)Cc1ccc(O)cc1)[C@@H](C)O)C(=O)N[C@H](C(=O)O)[C@@H](C)OC(C)(C)C", "systemName": "Delta-type opioid receptor (Rattus norvegicus, UniProt P33533)", "Ki (nM)": 3.1}
{"chemicalString": "CC(C)C[C@H](NC(=O)[C@H](Cc1ccccc1)NC(=O)CNC(=O)[C@@H](CO)NC(=O)[C@@H](N)Cc1ccc(O)cc1)C(=O)N[C@H](C(=O)O)[C@@H](C)OC(C)(C)C", "systemName": "Delta-type opioid receptor (Rattus norvegicus, UniProt P33533)", "Ki (nM)": 6.35}
{"chemicalString": "CC(C)C[C@H](NC(=O)[C@H](Cc1ccccc1)NC(=O)CNC(=O)[C@@H](NC(=O)[C@@H](N)Cc1ccc(O)cc1)[C@@H](C)O)C(=O)N[C@H](C(=O)O)[C@@H](C)O", "systemName": "Delta-type opioid receptor (Rattus norvegicus, UniProt P33533)", "Ki (nM)": 1.35}

q: Param readout= Ki; system= Delta-type opioid receptor (Rattus norvegicus, UniProt P33533); entry= `CC(C)C[C@H](NC(=O)[C@H](Cc1ccccc1)NC(=O)CNC(=O)[C@H](NC(=O)[C@@H](N)Cc1ccc(O)cc1)[C@@H](C)OC(C)(C)C)C(=O)N[C@H](C(=O)O)[C@@H](C)O` ; returns value.
a: 866

q: Provide the documented Ki with Delta-type opioid receptor (Rattus norvegicus, UniProt P33533) as the system for `CC(C)C[C@H](NC(=O)[C@H](Cc1ccccc1)NC(=O)CNC(=O)[C@@H](NC(=O)[C@@H](N)Cc1ccc(O)cc1)[C@@H](C)OC(C)(C)C)C(=O)N[C@H](C(=O)O)[C@@H](C)O`
a: 13000

q: Record lookup: for Delta-type opioid receptor (Rattus norvegicus, UniProt P33533), what Ki belongs to `CC(C)C[C@H](NC(=O)[C@H](Cc1ccccc1)NC(=O)CNC(=O)[C@@H](COC(C)(C)C)NC(=O)[C@@H](N)Cc1ccc(O)cc1)C(=O)N[C@H](C(=O)O)[C@@H](C)OC(C)(C)C` ?
a: 4.68
